Quick record of AC50 values for D(1A) dopamine receptor (Homo sapiens).

Some solved cases for reference:
CC(=O)Nc1ccc(/C=N/NC(N)=S)cc1    > 30 µM
COc1cccc2c1C(=O)c1c(O)c3c(c(O)c1C2=O)C[C@@](O)(C(=O)CO)C[C@@H]3O[C@H]1C[C@H](N)[C@@H](O)[C@H](C)O1 [EPIRUBICIN]    > 30 µM
Cc1ccc2c([nH]c(=O)c3c(=O)cc(C(=O)OCCC(C)C)oc32)c1C    > 30 µM

Q: Return AC50 measured with D(1A) dopamine receptor (Homo sapiens) given this compound: CCn1c(=O)c2c(nc(/C=C/c3ccc(OC)c(OC)c3)n2C)n(CC)c1=O
Sequence (P21728 whole entry): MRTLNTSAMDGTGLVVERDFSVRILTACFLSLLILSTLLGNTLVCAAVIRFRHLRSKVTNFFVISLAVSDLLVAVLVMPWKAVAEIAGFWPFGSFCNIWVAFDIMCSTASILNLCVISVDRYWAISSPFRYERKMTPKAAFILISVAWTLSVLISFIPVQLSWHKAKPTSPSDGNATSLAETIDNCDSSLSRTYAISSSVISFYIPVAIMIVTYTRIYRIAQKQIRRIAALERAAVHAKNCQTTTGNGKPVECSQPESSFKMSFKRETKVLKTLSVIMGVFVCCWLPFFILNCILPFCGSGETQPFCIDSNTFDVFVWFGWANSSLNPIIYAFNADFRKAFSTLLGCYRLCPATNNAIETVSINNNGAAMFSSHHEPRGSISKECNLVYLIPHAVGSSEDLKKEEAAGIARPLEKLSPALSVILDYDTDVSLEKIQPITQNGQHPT
A: > 30 µM

Q: Can you check CCCCC(=O)O[C@H]1CC[C@H]2[C@@H]3CCc4cc(O)ccc4[C@H]3CC[C@]12C [ESTRADIOL VALERATE] next?
A: > 30 µM

Q: Can you check C=CCOc1ccc(CC(=O)O)cc1Cl next?
A: > 30 µM
